target: human full length HSD11 β 1 (Homo sapiens, UniProt P28845); construct: transient expression of human full length HSD11 β 1 expression vector; host or cells: CHO cells (transient transfection); experiment: In Vitro HSD11β1 Inhibition Assay; format: cell-based; details: CHO cells transiently expressing human HSD11β1; 200 nM cortisone+500 uM NADPH overnight; cortisone to cortisol by LC/MS-MS; read-out: 11βHSD1 (IC50)
Sequence (P28845 whole entry): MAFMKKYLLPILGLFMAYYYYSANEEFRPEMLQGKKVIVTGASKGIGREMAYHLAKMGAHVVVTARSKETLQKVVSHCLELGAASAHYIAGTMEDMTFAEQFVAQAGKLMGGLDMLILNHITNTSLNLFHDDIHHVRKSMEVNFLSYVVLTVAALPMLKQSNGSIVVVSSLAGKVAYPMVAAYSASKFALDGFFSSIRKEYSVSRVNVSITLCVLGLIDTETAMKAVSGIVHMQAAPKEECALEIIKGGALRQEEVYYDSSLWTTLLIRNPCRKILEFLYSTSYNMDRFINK
pIC50: −log10 of the molar value.
reported endpoint: pIC50

Take a look at these entries with their results.
>>> measured("O=C(O)C1CCN(C(=O)CC(c2ccc(F)cc2)c2c[nH]c3cccc(F)c23)C2CCCCC12 (single isomer, unassigned) [Compound 225]")
"> 7.00"
>>> measured("O=C(CSc1nc2ccccc2s1)N1CCCC2CCCCC21 (stereo not shown)")
"< 6.60"

Input: Return pIC50 for the following molecule: O=C(O)C1CCCC2C1CCCN2C(=O)CC(c1cccs1)c1c[nH]c2cccc(Cl)c12 (single isomer, unassigned) [Compound 218]
Output: > 7.00

Input: Return pIC50 for the following molecule: CC(CC(=O)N1CCCC2C(C(=O)O)CCCC21)c1c[nH]c2cccc(-c3ccc(F)o3)c12 (single isomer, unassigned) [Compound 249]
Output: 6.60 to 6.70

----------
In this section, each of the compounds is paired with its reported IC50.
target: human full length HSD11 β 1 (Homo sapiens); construct: transient expression of human full length HSD11 β 1 expression vector; host or cells: CHO cells (transient transfection); test: In Vitro HSD11β1 Inhibition Assay; assay type: cell-based; settings: CHO cells transiently expressing human HSD11β1; 200 nM cortisone+500 uM NADPH overnight; cortisone to cortisol by LC/MS-MS; read-out: 11βHSD1 (IC50)

Take a look at these entries with their results.
>>> measured("Cc1[nH]c2ccc(F)cc2c1CCC(=O)N1CCCC2CCCCC21 (stereo not drawn) [Compound 16]")
"150 to 200 nM"
>>> measured("CC(CC(=O)N1C(C)CCC2C(C(=O)O)CCCC21)c1c[nH]c2cccc(-c3ccco3)c12 (stereo not drawn) [Compound 231]")
"150 to 200 nM"
>>> measured("Cn1cc(CCC(=O)N2CCCC3CCCCC32)c2cc(O)ccc21 (stereo not drawn) [Compound 24]")
"> 250 nM"
>>> measured("O=C(CSc1c[nH]c2ccccc12)N1CCCC2CCCCC21 (stereo not drawn) [Compound 5]")
"< 100 nM"

Input: Return IC50 for the following compound: O=C(CCn1nnc2ccccc21)N1CCOC2CCCCC21 (stereo not drawn) [Example 91]
Output: > 250 nM

Input: Return IC50 for the following compound: CC1CCC2CCCCC2N1C(=O)CCc1c[nH]c2cc(F)ccc12 (stereo not drawn) [Compound 40]
Output: > 250 nM

Input: Return IC50 for the following compound: CC(CC(=O)N1CCC(C(=O)O)C2CCCCC21)c1c[nH]c2cccc(C3CC3)c12 (stereo not drawn) [Compound 194]
Output: > 250 nM

Input: Return IC50 for the following compound: COC(=O)C1CCN(C(=O)CCc2c[nH]c3ccccc23)C2CCCCC12 (stereo not drawn) [Compound 49]
Output: > 250 nM

Input: Return IC50 for the following compound: Cc1cccc2c1nnn2C(CC(=O)N1CCC(C(=O)O)C2CCCCC21)C(C)C (stereo not drawn) [Example 183]
Output: > 250 nM

----------
target: human full length HSD11 β 1 (Homo sapiens); construct: transient expression of human full length HSD11 β 1 expression vector; host or cells: CHO cells (transient transfection); assay: In Vitro HSD11β1 Inhibition Assay; format: cell-based; settings: CHO cells transiently expressing human HSD11β1; 200 nM cortisone+500 uM NADPH overnight; cortisone to cortisol by LC/MS-MS; read-out: 11βHSD1 (IC50)
pIC50: −log10 of the molar value.
reported endpoint: pIC50

>>> measured("Cn1nc(CCC(=O)N2CCCC3CCCCC32)c2ccccc21 (stereo not drawn) [Example 89]")
"6.70 to 6.82"
>>> measured("COc1ccc2[nH]cc(CCC(=O)N3CCCC4CCCCC43)c2c1 (stereo not drawn) [Compound 7]")
"< 6.60"
>>> measured("O=C(O)C1CCCC2C1CCCN2C(=O)CSc1c[nH]c2cccc(C3CC3)c12 (stereo not drawn) [Compound 260]")
"< 6.60"
>>> measured("N#CC(CC(=O)N1CCCC2CCCCC21)c1c[nH]c2ccccc12 (stereo not drawn) [Example 109]")
"< 6.60"
>>> measured("CC(C)C(CC(=O)N1CCCC2CCCCC21)c1c[nH]c2ccccc12 (stereo not drawn) [Example 95]")
"> 7.00"

Now let's try a different one.
Input: # assay system human full length HSD11 β 1 (Homo sapiens): give pIC50 of CCC(CC(=O)N1CCC(C(=O)O)C2CCCCC21)c1c[nH]c2cccc(Cl)c12 (stereo not drawn) [Example 187]
Output: < 6.60

----------
In this section, each of the compounds is paired with its reported pIC50.
target: human full length HSD11 β 1 (Homo sapiens, UniProt P28845); construct: transient expression of human full length HSD11 β 1 expression vector; host or cells: CHO cells (transient transfection); experiment: In Vitro HSD11β1 Inhibition Assay; assay type: cell-based; conditions: CHO cells transiently expressing human HSD11β1; 200 nM cortisone+500 uM NADPH overnight; cortisone to cortisol by LC/MS-MS; read-out: 11βHSD1 (IC50)
pIC50: −log10 of the molar value.

Take a look at these entries with their results.
>>> measured("Cc1cccc2[nH]cc(CCC(=O)N3CCC(=O)C4CCCCC43)c12 (stereo not shown)")
"< 6.60"
>>> measured("O=C(O)C1CC2CCCCC2N(C(=O)CC(c2ccccc2)c2c[nH]c3cccc(F)c23)C1 (stereo not shown)")
"6.70 to 6.82"
>>> measured("CC(CC(=O)N1CCCC2CCCCC21)n1nnc2c(Cl)cccc21 (stereo not shown)")
"< 6.60"
>>> measured("CC(CC(=O)N1CCCC2C(C(=O)O)CCCC21)c1c[nH]c2cccc(-c3ccccc3F)c12 (stereo not shown)")
"6.82 to 7.00"
>>> measured("Cc1cccc2[nH]cc(CCC(=O)N3CCOC4CCCCC43)c12 (stereo not shown)")
"6.70 to 6.82"
>>> measured("COCn1cc(C(C)CC(=O)N2CCCC3C(C(=O)O)CCCC32)c2c(C3CC3)cccc21 (stereo not shown)")
"< 6.60"

Now let's try a different one.
Input: Return pIC50 for the following compound: O=C(O)C1CCCC2C1CCCN2C(=O)CC(O)(c1c[nH]c2ccccc12)C(F)(F)F (stereo not shown)
Output: < 6.60

----------
Target: human full length HSD11 β 1 (Homo sapiens)
Construct: transient expression of human full length HSD11 β 1 expression vector; host or cells: CHO cells (transient transfection)
Test: In Vitro HSD11β1 Inhibition Assay
Format: cell-based
Conditions: CHO cells transiently expressing human HSD11β1; 200 nM cortisone+500 uM NADPH overnight; cortisone to cortisol by LC/MS-MS; read-out: 11βHSD1 (IC50)
Description: In Vitro HSD11β1 Inhibition Assay: CHO cells were maintained in Dulbecco's modified Eagle's medium/nutrient mixture F-12 containing 5% fetal bovine serum (v/v) and 2 mM glutamine. Cells were cultured at 37° C. with 5% CO2. […] The enzymatic activity or inhibition of enzyme activity was measured by estimating the conversion of cortisone to cortisol by LC/MS-MS method. The IC50 in nM was calculated from an 8 point log scale of concentration versus inhibition.
reported endpoint: IC50

Take a look at these entries with their results.
>>> measured("CC(CC(=O)N1CCC[C@H]2CCCC[C@@H]21)c1c[nH]c2cccc(Cl)c12 (some centres unmarked)")
"> 250 nM"
>>> measured("CC(CC(=O)N1C(C)CCC2C(C(=O)O)CCCC21)c1c[nH]c2cccc(Cl)c12 (centres unmarked)")
"> 250 nM"
>>> measured("CC(C)C(CC(=O)N1CCCC2(C)CCCCC12)c1c[nH]c2cccc(F)c12 (single isomer, unassigned) [Example 115]")
"> 250 nM"
>>> measured("CC(CC(=O)N1CCCC2C(C(=O)O)CCCC21)c1c[nH]c2cccc(C#N)c12 (centres unmarked)")
"> 250 nM"
>>> measured("COC(=O)C1CCN(C(=O)CC(c2c[nH]c3ccccc23)C(C)C)C2CCCCC12 (centres unmarked)")
"> 250 nM"
>>> measured("CC(CC(=O)N1CCCC2(O)CCCCC12)c1c[nH]c2ncccc12 (centres unmarked)")
"> 250 nM"
>>> measured("O=C(CCn1ccc2ccccc21)N1CCCC2CCCCC21 (centres unmarked)")
"> 250 nM"
>>> measured("CC(C)C(CC(=O)N1CCCC2CCCCC21)c1c[nH]c2cccc(F)c12 (centres unmarked)")
"< 100 nM"

Input: Return IC50 for the following compound: COn1cc(C(C)CC(=O)N2CCCC3C(C(=O)O)CCCC32)c2c(C3CC3)cccc21 (centres unmarked)
Output: > 250 nM

Input: Return IC50 for the following compound: O=C(CCCc1c[nH]c2ccccc12)N1CCCC2CCCCC21 (centres unmarked)
Output: 100 to 150 nM

Input: Return IC50 for the following compound: O=C(O)C1CCCC2C1CCCN2C(=O)CC(c1cccs1)c1c[nH]c2cccc(Cl)c12 (single isomer, unassigned) [Compound 219]
Output: > 250 nM

The reported numbers originate from patent US9453014B2.
